# Tested on: 186277-243-T-J2-PDC complex spheroids, viability
# procedure_summary: Anticancer human tumor 186277-243-T-J2-PDC patient-derived colon adenocarcinoma cell line growth inhibition [RAS]; active = viability on the fitted dose curve at most 10% of control; inactive = the rest
# protocol_conditions: second compound 3.16 µM; first compound 1 µM
Hi there, use one of these labels in your reply, thanks! t = active, f = inactive

Look over these answered cases.
Cc1nc(N2CCC3(CC2)COC(C)C3N)c(CO)nc1Sc1ccnc(N)c1Cl (stereo not given) + C#Cc1c(F)ccc2cc(O)cc(-c3ncc4c(N5CC6CCC(C5)N6)nc(OCC56CCCN5CC(F)C6)nc4c3F)c12 :: t
CCN1CCN(Cc2ccc(Nc3ncc(F)c(-c4cc(F)c5nc(C)n(C(C)C)c5c4)n3)nc2)CC1 + C#Cc1c(F)ccc2cc(O)cc(-c3ncc4c(N5CC6CCC(C5)N6)nc(OCC56CCCN5CC(F)C6)nc4c3F)c12 :: f
C=CC(=O)Nc1cc(Nc2nccc(-c3cn(C)c4ccccc34)n2)c(OC)cc1N(C)CCN(C)C + C#Cc1c(F)ccc2cc(O)cc(-c3ncc4c(N5CC6CCC(C5)N6)nc(OCC56CCCN5CC(F)C6)nc4c3F)c12 :: t
CC(Nc1ccc2c(c1)OCCn1cc(N3C(=O)OCC3C(F)F)nc1-2)C(N)=O (stereo not given) + C#Cc1c(F)ccc2cc(O)cc(-c3ncc4c(N5CC6CCC(C5)N6)nc(OCC56CCCN5CC(F)C6)nc4c3F)c12 :: t

// next entry
Exercise: Which outcome did this test record for the compound CC(C)NCC(C(=O)N1CCN(c2ncnc3c2C(C)CC3O)CC1)c1ccc(Cl)cc1 (stereo not given) + C#Cc1c(F)ccc2cc(O)cc(-c3ncc4c(N5CC6CCC(C5)N6)nc(OCC56CCCN5CC(F)C6)nc4c3F)c12 ?
Solution: t

###

# System: 186277-243-T-J2-PDC complex spheroids, viability
# procedure_summary: Anticancer human tumor 186277-243-T-J2-PDC cell line growth inhibition [RAS];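 also: spheroids exposed to compounds for 7 days before viability read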
# protocol_conditions: second compound 0.003 µM; first compound 0.00949 µM; stronger effect = lower value
value_type: viability, T/C

Worked set:
CC1(C)CCC(Nc2ncc(C(F)(F)F)c(-c3c[nH]c4c(P(C)(C)=O)c(C#N)ccc34)n2)CN1 (centres undefined) + CCn1c(-c2cccnc2C(C)OC)c2c3cc(ccc31)N1CCOC(CC(NC(=O)C(C(C)C)N(C)C(=O)C3(F)CCN(C(=O)C#CC(C)(C)N(C)C)CC3)C(=O)N3CCCC(N3)C(=O)OCC(C)(C)C2)C1 :: 103%
CC1(C)CCC(Nc2ncc(C(F)(F)F)c(-c3c[nH]c4c(P(C)(C)=O)c(C#N)ccc34)n2)CN1 (centres undefined) + CCn1c(-c2cc(N3CCN(C)CC3)cnc2C(C)OC)c2c3cc(ccc31)-c1csc(n1)CC(NC(=O)C1CC1C)C(=O)N1CCCC(N1)C(=O)OCC(C)(C)C2 :: 82.1%

Exercise: Consider the molecule CCc1c2c(nc3ccc(O)cc13)-c1cc3c(c(=O)n1C2)COC(=O)[C@]3(O)CC + CCn1c(-c2cc(N3CCN(C)CC3)cnc2C(C)OC)c2c3cc(ccc31)-c1csc(n1)CC(NC(=O)C1CC1C)C(=O)N1CCCC(N1)C(=O)OCC(C)(C)C2 and give its measured viability, T/C.
Solution: 22.2%

Exercise: Consider the molecule CCc1c2c(nc3ccc(O)cc13)-c1cc3c(c(=O)n1C2)COC(=O)[C@]3(O)CC + CCn1c(-c2cccnc2C(C)OC)c2c3cc(ccc31)N1CCOC(CC(NC(=O)C(C(C)C)N(C)C(=O)C3(F)CCN(C(=O)C#CC(C)(C)N(C)C)CC3)C(=O)N3CCCC(N3)C(=O)OCC(C)(C)C2)C1 and give its measured viability, T/C.
Solution: 55.8%
